Molecular target: human KDR protein in HEK-293 cells (Homo sapiens (Human))
Sequence (P35968 20-1356): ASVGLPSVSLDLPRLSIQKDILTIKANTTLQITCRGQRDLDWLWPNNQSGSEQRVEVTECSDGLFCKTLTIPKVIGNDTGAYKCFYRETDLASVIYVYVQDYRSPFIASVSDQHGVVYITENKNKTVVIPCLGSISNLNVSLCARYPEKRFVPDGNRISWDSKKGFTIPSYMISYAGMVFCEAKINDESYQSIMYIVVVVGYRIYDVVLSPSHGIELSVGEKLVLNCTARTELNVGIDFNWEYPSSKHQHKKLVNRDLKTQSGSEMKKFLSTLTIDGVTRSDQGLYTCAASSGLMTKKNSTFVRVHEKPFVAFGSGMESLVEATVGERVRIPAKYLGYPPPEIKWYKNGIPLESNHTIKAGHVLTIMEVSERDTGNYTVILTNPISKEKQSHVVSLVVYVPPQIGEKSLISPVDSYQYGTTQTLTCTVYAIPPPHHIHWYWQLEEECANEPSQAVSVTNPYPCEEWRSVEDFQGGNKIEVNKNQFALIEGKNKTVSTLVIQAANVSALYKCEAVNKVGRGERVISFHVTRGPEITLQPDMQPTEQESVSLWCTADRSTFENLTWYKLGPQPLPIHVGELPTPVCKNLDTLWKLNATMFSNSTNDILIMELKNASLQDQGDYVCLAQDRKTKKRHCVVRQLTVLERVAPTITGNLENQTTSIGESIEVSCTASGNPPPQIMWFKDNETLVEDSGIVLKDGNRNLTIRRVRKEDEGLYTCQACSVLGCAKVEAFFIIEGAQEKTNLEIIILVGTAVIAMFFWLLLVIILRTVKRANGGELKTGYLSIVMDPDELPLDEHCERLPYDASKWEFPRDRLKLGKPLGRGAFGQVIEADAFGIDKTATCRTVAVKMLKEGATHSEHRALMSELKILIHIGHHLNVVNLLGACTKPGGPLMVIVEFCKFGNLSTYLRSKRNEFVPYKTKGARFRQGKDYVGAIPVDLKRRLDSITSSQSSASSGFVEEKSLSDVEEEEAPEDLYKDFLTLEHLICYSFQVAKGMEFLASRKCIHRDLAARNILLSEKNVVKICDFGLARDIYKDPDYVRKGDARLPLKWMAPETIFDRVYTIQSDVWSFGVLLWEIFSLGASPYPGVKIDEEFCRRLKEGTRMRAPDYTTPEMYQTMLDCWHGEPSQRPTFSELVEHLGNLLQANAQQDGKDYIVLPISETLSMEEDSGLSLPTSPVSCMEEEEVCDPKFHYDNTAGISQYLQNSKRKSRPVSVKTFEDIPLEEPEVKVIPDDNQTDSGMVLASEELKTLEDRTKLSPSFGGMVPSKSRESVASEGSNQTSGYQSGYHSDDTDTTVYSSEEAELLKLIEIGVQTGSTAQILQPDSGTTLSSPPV
Assay: KDR Cell Assay (phospho-KDR in HEK-293 cells expressing inducible KDR)
Format: cell-based
Conditions: pKDR Cell HEK 10% FBS IC50, HEK-293 cells expressing inducible KDR, VEGF stimulated
measuredEndpoint: IC50 (nM)
# value in nM; strip the unit string

See these solved cases before continuing.
CC(C)n1cc(CN2CCN(c3ccc(-c4cc(-c5cnn(C)c5)cn5ncc(C#N)c45)cn3)CC2)cn1 1660
Cn1cc(-c2cc(-c3ccc(N4CCC5(CC4)CN(C(=O)C4CCCCC4)C5)nc3)c3c(C#N)cnn3c2)cn1 771
Cn1cc(-c2cc(-c3ccc(N4CCC5(CCCN5C(=O)OC(C)(C)C)CC4)nc3)c3c(C#N)cnn3c2)cn1 2940
Cn1cc(-c2cc(-c3ccc(N4CCC5(CCN(C(=O)OC(C)(C)C)CC5)C4)nc3)c3c(C#N)cnn3c2)cn1 1790
COc1ccc(CN2CCN(c3ccc(-c4cc(-c5cnn(C)c5)cn5ncc(C#N)c45)cn3)CC2)nc1 324
Cn1cc(-c2cc(-c3ccc(N4CCN(Cc5ccncc5F)CC4)nc3)c3c(C#N)cnn3c2)cn1 1700

Now, please, on to the next molecule.
Ask: // IC50 lookup, key: "CCC1(C(=O)NC(C)C)CCN(c2ccc(-c3cc(-c4cn(C)nc4C)cn4ncc(C#N)c34)cn2)CC1"
Result: 4860
